// provenance: PubChem BioAssay AID1508600

test: Components of the Cytosolic LPS Sensing Pathway: Gene Identification via Genome-wide siRNA Screen; conditions: RAW264.7 macrophages, IL-1a HTRF, actives lie on both sides, screened at 100 nM (by protocol), cells primed 5 h with Pam3CSK4 first;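 further: robust z of the log signal after scaling to non-targeting control siRNA wells of the plate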
Among all 53,000 sequences or so, about 3,700 (7%) were called active. This excerpt belongs to a sample that is enriched for actives.
Entries whose z-score is below 1 take MET; entries at or above 1 take NOT MET.

> print(dat)
                           residue.codes  category
1  GGAUCAGAGAAGGAAAAAATT against Hspa12a       MET
2   GGAAAACAACACGAUGAAATT against Tex13b       MET
3    GUCUAUCUUCAGCACAAACTT against Klrc3   NOT MET
4  GGCCAGAAAAUUAAGGAGCTT against Faap100   NOT MET
5    CCCUCAAAGACCUGUACAUTT against Gm266   NOT MET

* * *

test: Components of the Cytosolic LPS Sensing Pathway: Gene Identification via Genome-wide siRNA Screen; conditions: RAW264.7 macrophages, IL-1a HTRF, actives lie on both sides, screened at 100 nM (by protocol), cells primed 5 h with Pam3CSK4 first;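 further: robust z of the log signal after scaling to non-targeting control siRNA wells of the plate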
Among all 53,000 sequences or so, about 3,700 (7%) were called active.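 Rule for the calls: active = gene knockdowns whose robust z-score for IL-1 alpha signal is at least 2 or at most -2, so actives lie on both sides; inactive = the rest.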 Many of the other results were omitted from the sample, so actives are more common in it than they were.
Outcomes: yes (1) (active), no (0) (inactive)

> print(dat)
                             residue.codes  category
 1   GCUCUCUGAAAGAGUAUUGTT against Khdrbs2    no (0)
 2    GGAUGAGGGAACGUACAUUTT against Il18r1   yes (1)
 3     CCUAUGAGGAGGUACUAAATT against Itih1    no (0)
 4   GGUUCUCUACAAAGUAAGUTT against Slc35e1    no (0)
 5      GGAAAUAUAUGUCAUGUCATT against Nars   yes (1)
 6    GGAACUUCGUCAGUACAUUTT against Setdb1   yes (1)
 7     CCAGUAUCUAAUUGGAAUATT against Paqr8   yes (1)
 8      GGGACAGUAGAAGAUGUAGTT against Got2    no (0)
 9    GGCCUGUUGAUUGCAUAUUTT against Sppl2a    no (0)
10  GGAUUUUUCCAUAAAAACCTT against B3galnt1    no (0)
11      GCAUGGGCAUAACCGAAAGTT against Rex2    no (0)
12      GGAUAUGCAGUGGAACUAUTT against Heph   yes (1)

* * *

assay: Components of the Cytosolic LPS Sensing Pathway: Gene Identification via Genome-wide siRNA Screen; conditions: RAW264.7 macrophages, IL-1a HTRF, actives lie on both sides, screened at 100 nM (by protocol), cells primed 5 h with Pam3CSK4 first;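 further: robust z of the log signal after scaling to non-targeting control siRNA wells of the plate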
About 3,700 (7%) of roughly 53,000 sequences were called active. The entries come from a sample that favours actives as a whole.
// assign yes if z-score falls strictly below -0.1, else no (ties count as no)

> print(dat)
                             residue.codes  category
 1     GGUAUGCACUCACACCAGATT against Mus81        no
 2    GGAACCAGUGCUGCAUUUATT against Defb41       yes
 3      CCACCUUCCUAUGUUUGUATT against Ebf2        no
 4     GGAAAAAAGGUCUGUAAAUTT against Ubl4b        no
 5     GCGGAUCUGCUUUUUGCACTT against Ttc14       yes
 6     GGUCGUAAAAAUUGAAAUCTT against Lhcgr        no
 7  GAGGGUGUGCAUUCUUCUATT against Olfr1242       yes
 8      GCAUUUAAAAUACACGGUGTT against Arg1        no
 9      GGUAGUCAUACAGAUAUGUTT against Hey2        no
10    GGGUUGGUAUAGCUUUCAGTT against Zfp619       yes
11      GGAAAAGUCCCGUAUGGAGTT against Gcc1       yes
12     GGUGUUUCAUAUGGUUACUTT against Psma3       yes
